# Tested on: L1210 leukemia ip in BDF1 mice, survival T/C
# method: NCI In Vivo Anticancer Drug Screen. Data for tumor model L1210 Leukemia (intraperitoneal) in B6D2F1 (BDF1) mice
# assay_context: endpoint: mean survival time; dose: 200.0 mg/kg/injection; schedule: Q04DX002 (ip); vehicle: saline; higher = longer survival
Inconclusive results and toxic doses are left out.
measured_endpoint: T/C

Look over these answered cases.
CNC(=O)Oc1ccc2c(C)cc(=O)oc2c1 = 105 % of control
Cn1nc(C(=O)O)c2c(N)ncnc21 = 98 % of control
OCC(O)C(O)C(O)C(O)CNC(CO)(CO)CO (centres undefined) = 88 % of control
CC1CN=C(c2ccc(O)cc2O)S1 (centres undefined) = 104 % of control
O=C(O)CCCN1CCCCC1 = 100 % of control

Okay, next one:
Q) Query (molecule): O=C(Nc1ccc(N(CCCl)CCCl)cc1)c1ccc([N+](=O)[O-])cc1 ; field requested: T/C
A) 117 % of control
